# inhibition listing for each entry below
experiment description: VP16 transactivation inhibitors, counter-screen for SRC1 inhibitor project, cell-based, luminescence, high throughput (AID 588824)
experimental conditions: cell-based VP16 transactivation luciferase luminescence; at 3.6 µM; active compounds read high
Activity calls are given as the source filed them. Rule as the data show it: active = inhibition above about 25%; inactive = the rest.
measured endpoint: inhibition

compound: CC(C)(C)NC(=O)CSc1nc2ccc(NC(=O)CSc3nnnn3Cc3ccccc3)cc2s1
measured endpoint: inhibition
value measured: 26.4% (active)

compound: O=c1oc2ccccc2cc1-c1cn(-c2ccccc2)c(=S)[nH]1
measured endpoint: inhibition
value measured: -22.7% (inactive)

compound: Clc1ccc(-n2ncc3c(NCCN4CCOCC4)ncnc32)cc1
measured endpoint: inhibition
value measured: -21.6% (inactive)

compound: Cc1cc(NC(c2ccc(Cl)cc2)c2ccc3cccnc3c2O)no1 (stereo not drawn)
measured endpoint: inhibition
value measured: 58.8% (active)

compound: Cc1cccc(N2CC(C(=O)Nc3ccc(S(=O)(=O)Nc4nccs4)cc3)CC2=O)c1C (stereo not drawn)
measured endpoint: inhibition
value measured: -6.59% (inactive)

compound: CN=C(C)/C(C(=O)OC)=C(/O)c1c(F)cccc1F
measured endpoint: inhibition
value measured: 3.9% (inactive)

compound: O=C(CCC1CCCC1)Nc1ccc(C(=O)NCc2cccnc2)cc1
measured endpoint: inhibition
value measured: 24.4% (inactive)

compound: Cc1ccc(/C=C/C(=O)c2c(C)cc(C)[nH]c2=O)cc1
measured endpoint: inhibition
value measured: 46.4% (active)

---

System: Nuclear hormone receptor DAF-12 (Haemonchus contortus)
experiment description: H. contortus DAF-12 receptor agonists, confirmation, cell-based, luminescence, HEK293, lit1-tk-luc, triplicate (AID 743032);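 also: 0% = DMSO only wells and 100% = 3 µM Δ7-dafachronic acid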
experimental conditions: HEK293 hcDAF-12 lit1-tk-luc reporter, at 6.8 µM, active compounds read high, % of Δ7-dafachronic acid response
Some of the results follow.
measured endpoint: activation (%)

compound: CCOc1ccc(C2c3[nH]c4ccccc4c3CCN2Cc2cn(CC)nc2C)cc1 (configuration not stated)
system name: Nuclear hormone receptor DAF-12 (Haemonchus contortus)
unit of measurement: %
value measured: 3.63
//
compound: O=C(O)c1ccccc1CSc1nc2ccccc2s1
system name: Nuclear hormone receptor DAF-12 (Haemonchus contortus)
unit of measurement: %
value measured: 9.05
//
compound: CNc1nc(Nc2ccc(C)c(Cl)c2)nc(N)c1[N+](=O)[O-]
system name: Nuclear hormone receptor DAF-12 (Haemonchus contortus)
unit of measurement: %
value measured: 10.9
//
compound: CCCc1cc(C(=O)Nc2ccc(Cl)cn2)cs1
system name: Nuclear hormone receptor DAF-12 (Haemonchus contortus)
unit of measurement: %
value measured: 4.99
//
compound: Cc1cc(C)c2nc(NC(=O)C3CCCO3)sc2c1 (configuration not stated)
system name: Nuclear hormone receptor DAF-12 (Haemonchus contortus)
unit of measurement: %
value measured: 6.1
//
compound: Cc1csc(SCC(=O)Nc2sccc2C#N)n1
system name: Nuclear hormone receptor DAF-12 (Haemonchus contortus)
unit of measurement: %
value measured: 10.3
//
compound: Cc1ccc(C(=O)O/N=C(\N)c2ccccn2)cc1Cl
system name: Nuclear hormone receptor DAF-12 (Haemonchus contortus)
unit of measurement: %
value measured: 4.81
//
compound: Fc1ccc2nc(Nc3nc4c(s3)CCCC4)sc2c1
system name: Nuclear hormone receptor DAF-12 (Haemonchus contortus)
unit of measurement: %
value measured: 11.5
//
compound: Cc1ccccc1Nc1nc(N)nc(CSc2ccccc2)n1
system name: Nuclear hormone receptor DAF-12 (Haemonchus contortus)
unit of measurement: %
value measured: 8.23
//
compound: CC(=O)Nc1cccc(-c2csc(Nc3cccc(C)n3)n2)c1
system name: Nuclear hormone receptor DAF-12 (Haemonchus contortus)
unit of measurement: %
value measured: 3.26
//
compound: Cn1c(-c2ccco2)nc2cc3ccccc3cc21
system name: Nuclear hormone receptor DAF-12 (Haemonchus contortus)
unit of measurement: %
value measured: 17.3
//
compound: Clc1ccc(Nc2ccc3ccccc3n2)cc1
system name: Nuclear hormone receptor DAF-12 (Haemonchus contortus)
unit of measurement: %
value measured: 15
//
compound: Cc1cc(C)nc(Nc2n[nH]c(-c3ccccc3N)n2)n1
system name: Nuclear hormone receptor DAF-12 (Haemonchus contortus)
unit of measurement: %
value measured: 8.91
//
compound: C/C(=N/NC(=O)c1ccc(Br)o1)c1ccc(C)o1
system name: Nuclear hormone receptor DAF-12 (Haemonchus contortus)
unit of measurement: %
value measured: 4.27
//
compound: NNc1nc2c(Cl)cccc2s1
system name: Nuclear hormone receptor DAF-12 (Haemonchus contortus)
unit of measurement: %
value measured: 1.23
//
compound: COc1ccc2nc(SCc3ccccc3)nc(C)c2c1
system name: Nuclear hormone receptor DAF-12 (Haemonchus contortus)
unit of measurement: %
value measured: 5.65
//
compound: COc1cc(/C=N/Nc2nc3ccccc3s2)ccc1O
system name: Nuclear hormone receptor DAF-12 (Haemonchus contortus)
unit of measurement: %
value measured: 12.4
//
compound: Cc1ccc(OCc2nc3ccccc3n2C)cc1
system name: Nuclear hormone receptor DAF-12 (Haemonchus contortus)
unit of measurement: %
value measured: 5.18
//
compound: CCc1ccc2oc(-c3ccc(N)cc3)nc2c1
system name: Nuclear hormone receptor DAF-12 (Haemonchus contortus)
unit of measurement: %
value measured: 10.2
//
compound: CC(C)C(=O)Nc1ccc2c(c1)oc1ccccc12
system name: Nuclear hormone receptor DAF-12 (Haemonchus contortus)
unit of measurement: %
value measured: 5.43
//
compound: COc1ccc(C2COC(=O)C2=N)c(NC(=O)c2ccccc2)c1 (configuration not stated)
system name: Nuclear hormone receptor DAF-12 (Haemonchus contortus)
unit of measurement: %
value measured: 4.45
//
compound: CCc1ccc(-c2cc(C(=O)NN3CCN(C)CC3)c3ccccc3n2)cc1
system name: Nuclear hormone receptor DAF-12 (Haemonchus contortus)
unit of measurement: %
value measured: 0.58
//
compound: CCS(=O)(=O)N1Cc2ccccc2CC1C(=O)Nc1nc2ccc(F)cc2s1 (configuration not stated)
system name: Nuclear hormone receptor DAF-12 (Haemonchus contortus)
unit of measurement: %
value measured: 6.53
//
compound: O=C(N/N=C\C1CC=CCC1)c1ccc(Br)o1 (configuration not stated)
system name: Nuclear hormone receptor DAF-12 (Haemonchus contortus)
unit of measurement: %
value measured: 0.29
//
compound: Cc1cccc(-c2nc3ccccc3c(=O)n2NC(=O)Cc2ccc(Cl)cc2)c1
system name: Nuclear hormone receptor DAF-12 (Haemonchus contortus)
unit of measurement: %
value measured: 0.97
//
compound: Cc1nn(CCOc2ccccc2)c(=O)n1-c1ccccc1F
system name: Nuclear hormone receptor DAF-12 (Haemonchus contortus)
unit of measurement: %
value measured: 5.42
//
compound: O=C(Nc1ccc(Cl)cc1)C1c2cccc[n+]2CC(=O)N1Cc1ccc2c(c1)OCO2 (configuration not stated)
system name: Nuclear hormone receptor DAF-12 (Haemonchus contortus)
unit of measurement: %
value measured: 2.78
//
compound: Brc1ccc2nc(N3CCCC3)sc2c1
system name: Nuclear hormone receptor DAF-12 (Haemonchus contortus)
unit of measurement: %
value measured: 5.13
//
compound: Oc1ccccc1-c1cc(-c2ccc(Cl)cc2)n[nH]1
system name: Nuclear hormone receptor DAF-12 (Haemonchus contortus)
unit of measurement: %
value measured: 14.7
//
compound: C/C(=N/NC(=S)Nc1ccccc1)c1ccc2c(c1)OCO2
system name: Nuclear hormone receptor DAF-12 (Haemonchus contortus)
unit of measurement: %
value measured: 0.89
//
compound: CCOc1ccc2nc(C(=O)N3CCCC(C)C3)sc2c1 (configuration not stated)
system name: Nuclear hormone receptor DAF-12 (Haemonchus contortus)
unit of measurement: %
value measured: 4.22
//
compound: O=c1c2c(nc3cc(-c4cccc(Cl)c4)[nH]n13)CCCC2
system name: Nuclear hormone receptor DAF-12 (Haemonchus contortus)
unit of measurement: %
value measured: 9.19
//
compound: O=C(Cn1ccc([N+](=O)[O-])n1)NCc1cccs1
system name: Nuclear hormone receptor DAF-12 (Haemonchus contortus)
unit of measurement: %
value measured: 1.71
//
compound: CC(C)c1ccc(C=NNc2ccc([N+](=O)[O-])cn2)cc1
system name: Nuclear hormone receptor DAF-12 (Haemonchus contortus)
unit of measurement: %
value measured: 12
//
compound: COc1ccc(CNC(=O)c2ccc3oc(C(C)C)nc3c2)cc1
system name: Nuclear hormone receptor DAF-12 (Haemonchus contortus)
unit of measurement: %
value measured: 2.54
//
compound: Cn1c(=NC(=O)c2ccco2)sc2cccc(F)c21
system name: Nuclear hormone receptor DAF-12 (Haemonchus contortus)
unit of measurement: %
value measured: 15
//
compound: COC(=O)C1=NN(c2ccccc2)C2C(=O)N(c3ccccc3OC)C(=O)C12 (configuration not stated)
system name: Nuclear hormone receptor DAF-12 (Haemonchus contortus)
unit of measurement: %
value measured: -0.03

---

experiment description: StAR promoter reporter inhibitors, counter-screen for LRH-1 inverse agonist project, cell-based, luminescence, high throughput (AID 651611)
experimental conditions: StAR promoter luciferase reporter counterscreen, at 3.6 µM
The source made the active and inactive calls. Rule as the data show it: active = inhibition above about 28%; inactive = the rest.
Outcomes: yes (1) = active, no (0) = inactive

compound: COc1ccc(CC2C(=O)NC(C)C(=O)N(C)C3Cc4ccc(cc4)Oc4cc(ccc4O)CC(C(=O)NC(C)C(=O)NC(C)C(=O)N2C)N(C)C3=O)cc1 (stereo unspecified)
answer label: yes (1)
--
compound: Cc1ccc(Sc2ccc(NC(=O)CCl)cc2)cc1C
answer label: no (0)
--
compound: CC(C)(C)N(Cc1ccc2c(c1)OCO2)C(=O)/C=C\S(=O)c1ccccc1 (stereo unspecified)
answer label: yes (1)
--
compound: CC(NC(=O)c1ccc([N+](=O)[O-])o1)C1CC2CCC1C2 (stereo unspecified)
answer label: no (0)
--
compound: CC1CC(C)CN(c2cc(N(C)CCO)c([N+](=O)[O-])c3nonc23)C1 (stereo unspecified)
answer label: no (0)
--
compound: O=C(CCl)Nc1ccc2c(c1)OCO2
answer label: yes (1)
--
compound: CCOc1ccc(NC(=O)CN2CCN(C3c4ccccc4-c4ccccc43)CC2)cc1
answer label: no (0)
--
compound: Cc1onc(-c2c(F)cccc2Cl)c1C(=O)Oc1ccccc1
answer label: no (0)
--
compound: CC1(C)Cc2ccccc2/C(=C/C(=O)c2ccccc2)N1
answer label: no (0)
--
compound: O=C(NCc1ccccc1)c1cccc(NC(=O)c2ccco2)c1
answer label: yes (1)
--
compound: Cn1nnnc1Sc1ncnc2scc(-c3ccc(-c4ccccc4)cc3)c12
answer label: no (0)
--
compound: Cc1ccsc1C(=O)OCC(=O)c1cc(C)n(CC2CCCO2)c1C (stereo unspecified)
answer label: yes (1)
--
compound: Cc1ccc2c(c1)N(C)/C(=C/c1cccc[n+]1C)S2
answer label: yes (1)
--
compound: Nc1ncnc2c(C3OC(CO)C(O)C3O)c[nH]c12 (stereo unspecified)
answer label: yes (1)
--
compound: CS(=O)(=O)N1Cc2cc(C(=O)NCC3CC3)nc(-c3cccc(-c4cccnc4)c3)c2[C@@H]1CCO
answer label: no (0)
--
compound: Cc1ccc(OCCN2CCN(c3ncnc4sc(C)c(C)c34)CC2)cc1
answer label: yes (1)
